Test system: Balamuthia mandrillaris (ATCC PRA-291) trophozoites, axenic culture
Test: primary screen, percent inhibition; higher = more effect of the substance;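 also: 0% = vehicle wells and 100% = lysate wells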
Conditions: 20 µM
The campaign covered roughly 2,000 compounds. About 15 (0.8%) showed an effect of 50% or more. For the sample, strong results were picked, then their nearest neighbours and some compounds at random.
Measured attribute: % Inhibition (%)
Form entry: value (%) — number only.

Tell me reported % Inhibition for CCCCN(CCCC)CC(O)c1cc(Cl)cc2c1-c1ccc(Cl)cc1/C2=C/c1ccc(Cl)cc1 (centres unmarked) , tested with Balamuthia mandrillaris (ATCC PRA-291) trophozoites, axenic culture.
5.93

Tell me reported % Inhibition for O=C(O)P(=O)(O)O , tested with Balamuthia mandrillaris (ATCC PRA-291) trophozoites, axenic culture.
19.1

Tell me reported % Inhibition for Clc1ccc(CSC(Cn2ccnc2)c2ccc(Cl)cc2Cl)cc1 (centres unmarked) , tested with Balamuthia mandrillaris (ATCC PRA-291) trophozoites, axenic culture.
15.3

Tell me reported % Inhibition for CC(CC(C(N)=O)(c1ccccc1)c1ccccc1)N(C)C (centres unmarked) , tested with Balamuthia mandrillaris (ATCC PRA-291) trophozoites, axenic culture.
14.2

Tell me reported % Inhibition for OC(CNCC(O)C1CCc2cc(F)ccc2O1)C1CCc2cc(F)ccc2O1 (centres unmarked) , tested with Balamuthia mandrillaris (ATCC PRA-291) trophozoites, axenic culture.
6.6

Tell me reported % Inhibition for O=C(NCCCN1CCOCC1)c1ccc(Cl)cc1 , tested with Balamuthia mandrillaris (ATCC PRA-291) trophozoites, axenic culture.
17.5

Tell me reported % Inhibition for CC[C@@H](C(N)=O)N1CCCC1=O , tested with Balamuthia mandrillaris (ATCC PRA-291) trophozoites, axenic culture.
13.9

Tell me reported % Inhibition for Clc1ccc(C(Cn2ccnc2)OCc2ccsc2Cl)c(Cl)c1 (centres unmarked) , tested with Balamuthia mandrillaris (ATCC PRA-291) trophozoites, axenic culture.
5.23

Tell me reported % Inhibition for C=Cc1c(C)c2cc3[nH]c(cc4nc(cc5nc(cc1[nH]2)C(C)=C5CCC(=O)O)C(CCC(=O)O)=C4C)c(C)c3C=C , tested with Balamuthia mandrillaris (ATCC PRA-291) trophozoites, axenic culture.
5.79

Tell me reported % Inhibition for CCN(CC)C(=O)C1(c2ccccc2)CC1CN (centres unmarked) , tested with Balamuthia mandrillaris (ATCC PRA-291) trophozoites, axenic culture.
21.4

Tell me reported % Inhibition for Cc1ccccc1C(OCCN(C)C)c1ccccc1 (centres unmarked) , tested with Balamuthia mandrillaris (ATCC PRA-291) trophozoites, axenic culture.
-5.39

###

Tested on: Balamuthia mandrillaris (ATCC PRA-291) trophozoites, axenic culture
Experiment: primary screen, percent inhibition; higher = more effect of the substance;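 also: 0% = vehicle wells and 100% = lysate wells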
Conditions: 20 µM
The whole screen tested about 2,000 compounds, of which about 15 (0.8%) showed an effect of 50% or more. The list comes from a sample in which strong results are over-represented; it also holds close analogues and randomly drawn compounds.
Could you please report measured % Inhibition for the items listed next?
Form entry: value (%) — number only.

Need % Inhibition, item C[N+](C)(C)CCCCCCCCCC[N+](C)(C)C
25.7

Need % Inhibition, item COc1cc2ncnc(Nc3ccc(F)c(Cl)c3)c2cc1OCCCN1CCOCC1
-9.92

Need % Inhibition, item C[N+](C)(C)CCOC(N)=O
-7.4

Need % Inhibition, item COCCCOc1cc(C[C@@H](C[C@H](N)[C@@H](O)C[C@H](C(=O)NCC(C)(C)C(N)=O)C(C)C)C(C)C)ccc1OC
-4.92

Need % Inhibition, item CC(=O)/N=c1\sc(S(N)(=O)=O)nn1C
11.1

Need % Inhibition, item CO/N=C(/C(=O)NC1C(=O)N2C(C(=O)O)=C(COC(N)=O)CSC12)c1ccco1 (stereo not shown)
41.1

Need % Inhibition, item Cn1c(=O)c2nc[nH]c2n(C)c1=O
8.85

Need % Inhibition, item C[C@H]1CN(C[C@H](Cc2ccccc2)C(=O)NCC(=O)O)CC[C@@]1(C)c1cccc(O)c1
13.2

Need % Inhibition, item O=C(Nc1cccc2c(=O)cc(-c3nn[nH]n3)oc12)c1ccc(OCCCCc2ccccc2)cc1
-2.25

Need % Inhibition, item CCCCCCCCCCCCCCCC[N+](C)(C)C
56.1

###

Test system: Balamuthia mandrillaris (ATCC PRA-291) trophozoites, axenic culture
Assay: primary screen, percent inhibition; higher = more effect of the substance;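 also: 0% = vehicle wells and 100% = lysate wells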
Details: 20 µM
Protocol: Screening of a clinically approved library of compounds, compiled by the Small Molecule Discovery Center (SMDC) at the UCSF, was completed at 20 µM in 0.2% DMSO. […] The luminescence was measured with a Promega GloMax-Multi+ plate reader at 2, 4, and 8 h after CTG addition. […] The B-score, representing a plate-based statistical approach for correcting row, column, and edge effects, was also calculated for each compound in the library (75).
The campaign covered roughly 2,000 compounds. About 15 (0.8%) showed an effect of 50% or more. What follows is part of a selection rich in strong results, with near analogues and random picks from the rest.
Measured attribute: % Inhibition (%)
Form entry: value (%) — number only.

Need % Inhibition, item N[C@@H](CSSC[C@H](N)C(=O)O)C(=O)O
-0.0671

Need % Inhibition, item CNCCCC12CCC(c3ccccc31)c1ccccc12
15.2

Need % Inhibition, item Nc1c(Br)cc(Br)cc1CNC1CCC(O)CC1 (stereo not drawn)
20.4

Need % Inhibition, item CC(=O)OCC(=O)[C@@]1(O)CC[C@H]2[C@@H]3CCC4=CC(=O)CC[C@]4(C)[C@@]3(F)[C@@H](O)C[C@@]21C
17.7

Need % Inhibition, item CC[C@]1(O)C[C@H]2CN(CCc3c([nH]c4ccccc34)[C@@](C(=O)OC)(c3cc4c(cc3OC)N(C=O)[C@H]3[C@@](O)(C(=O)OC)[C@H](OC(C)=O)[C@]5(CC)C=CCN6CC[C@]43[C@@H]65)C2)C1
9.62

Need % Inhibition, item C=CC1=C(C(=O)O)N2C(=O)[C@@H](NC(=O)/C(=N\OCC(=O)O)c3csc(N)n3)[C@H]2SC1
6.01

Need % Inhibition, item OCCN1CCN(CCCN2c3ccccc3Sc3ccc(Cl)cc32)CC1
33.5

Need % Inhibition, item CCNC(=O)CCC/C=C\C[C@@H]1[C@@H](/C=C/[C@@H](O)CCc2ccccc2)[C@H](O)C[C@@H]1O
22.9

Need % Inhibition, item Cc1oncc1C(=O)Nc1ccc(C(F)(F)F)cc1
15

###

Could you please report measured % Inhibition for the items listed next?
System: Balamuthia mandrillaris (ATCC PRA-291) trophozoites, axenic culture
Assay: primary screen, percent inhibition; higher = more effect of the substance;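 also: 0% = vehicle wells and 100% = lysate wells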
Conditions: 20 µM
Procedure: Screening of a clinically approved library of compounds, compiled by the Small Molecule Discovery Center (SMDC) at the UCSF, was completed at 20 µM in 0.2% DMSO. […] The luminescence was measured with a Promega GloMax-Multi+ plate reader at 2, 4, and 8 h after CTG addition. […] The B-score, representing a plate-based statistical approach for correcting row, column, and edge effects, was also calculated for each compound in the library (75).
In all, about 2,000 compounds went through this assay and about 15 (0.8%) showed an effect of 50% or more. What follows is part of a selection rich in strong results, with near analogues and random picks from the rest.
Form entry: value (%) — number only.

Need % Inhibition, item C[C@@H](O)[C@H]1C(=O)N2C(C(=O)O)=C(S[C@@H]3CN[C@H](C(=O)Nc4cccc(C(=O)O)c4)C3)[C@H](C)[C@H]12
10.5

Need % Inhibition, item CN1C2CCC1CC(OC(=O)[C@H](CO)c1ccccc1)C2 (some centres unmarked)
23

Need % Inhibition, item CCN(C)C(=O)Oc1cccc([C@H](C)N(C)C)c1
25.9

Need % Inhibition, item COc1ccc2cc3[n+](cc2c1OC)CCc1cc2c(cc1-3)OCO2
29.8

Need % Inhibition, item O=C(O)CCC(=O)OC[C@@H](NC(=O)C(Cl)Cl)[C@H](O)c1ccc([N+](=O)[O-])cc1
-36.5

###

System: Balamuthia mandrillaris (ATCC PRA-291) trophozoites, axenic culture
Experiment: primary screen, percent inhibition; higher = more effect of the substance;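 also: 0% = vehicle wells and 100% = lysate wells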
Details: 20 µM
In all, about 2,000 compounds went through this assay and about 15 (0.8%) showed an effect of 50% or more. The entries come from a sample that favours strong results as a whole.
Could you please report measured % Inhibition for the items listed next?
Form entry: value (%) — number only.

Need % Inhibition, item CN(C)c1ccc2nc3ccc(=[N+](C)C)cc-3sc2c1
35.9

Need % Inhibition, item COc1ccc2c(c1)N(C[C@H](C)CN(C)C)c1ccccc1S2
2.52

Need % Inhibition, item C[N+]1(C)[C@@H]2C[C@@H](OC(=O)C(O)(c3cccs3)c3cccs3)C[C@H]1[C@@H]1O[C@@H]12
11.2

Need % Inhibition, item CCOC(=O)c1ncn2c1CN(C)C(=O)c1cc(F)ccc1-2
7.85

Need % Inhibition, item CC(=O)[C@H]1CC[C@H]2[C@@H]3CC=C4C[C@@H](OC(=O)CCC(=O)O)CC[C@]4(C)[C@H]3CC[C@]12C
-6.88

Need % Inhibition, item CC1(C)O[C@]2(C)CC[C@H]1CC2
17.9

Need % Inhibition, item C[C@@H]1CC[C@H]2[C@@H](C)C(O)O[C@@H]3O[C@@]4(C)CC[C@@H]1[C@]32OO4 (stereo partly shown)
56.5

Need % Inhibition, item Cc1cnc(C(=O)O)c[n+]1[O-]
0.14

Need % Inhibition, item CCC(=O)O[C@H]1[C@H](O[C@@H]2[C@@H](C)[C@H](O[C@H]3C[C@@](C)(OC)[C@@H](O)[C@H](C)O3)[C@@H](C)C(=O)O[C@H](CC)[C@@](C)(O)[C@H](O)[C@@H](C)C(=O)[C@H](C)C[C@@]2(C)O)O[C@H](C)C[C@@H]1N(C)C
4.56

Need % Inhibition, item CCN(CC)CCOC(=O)C(Cc1cccc2ccccc12)CC1CCCO1 (stereo not shown)
24.5
